test_details: Aqueous solubility of the compound in simulated intestinal fluid at pH 6.8
Format: ADME
recorded_conditions: simulated gi fluid
readout_kind: solubility

Below: 4 molecules and their reported solubility.
# molecular_string, solubility
records = [
    ("CCCS(=O)(=O)Nc1ccc(F)c(C(=O)c2c[nH]c3ncc(-c4ccc(OCCCN(C)C)nc4)cc23)c1F", "Insoluble"),
    ("CCCS(=O)(=O)Nc1ccc(F)c(C(=O)c2c[nH]c3ncc(-c4cnc(N5CCCC5)nc4)cc23)c1F", "Insoluble"),
    ("Cc1cnc2[nH]cc(C(=O)c3c(F)ccc(NS(=O)(=O)c4cccc(F)c4)c3F)c2c1", "Soluble"),
    ("CCCS(=O)(=O)Nc1ccc(F)c(C(=O)c2c[nH]c3ncc(-c4cnc(SC)nc4)cc23)c1F", "Insoluble"),
]

COc1ccnc2[nH]cc(C(=O)c3c(F)ccc(NS(=O)(=O)c4cccc(F)c4)c3F)c12 has a reported solubility of Soluble

CCCS(=O)(=O)Nc1ccc(F)c(C(=O)c2c[nH]c3ncc(-c4ccc(OCCCN5CCOCC5)nc4)cc23)c1F has a reported solubility of Insoluble

C#Cc1cnc2[nH]cc(C(=O)c3c(F)ccc(NS(=O)(=O)CCC)c3F)c2c1 has a reported solubility of Insoluble

CCCS(=O)(=O)Nc1ccc(F)c(C(=O)c2c[nH]c3ncc(-c4cnc(N(C)C)nc4)cc23)c1F has a reported solubility of Insoluble

CCCS(=O)(=O)Nc1ccc(F)c(C(=O)c2c[nH]c3ncc(-c4ccc(C#CCN(CC)CC)nc4)cc23)c1F has a reported solubility of Insoluble

COc1ncc(-c2cnc3[nH]cc(C(=O)c4c(F)ccc(NS(=O)(=O)c5c(F)cccc5F)c4F)c3c2)cn1 has a reported solubility of Insoluble

CCCS(=O)(=O)Nc1ccc(F)c(C(=O)c2c[nH]c3ncc(-c4ccc(NC(C)=O)nc4)cc23)c1F has a reported solubility of Insoluble

O=C(c1c(F)ccc(NS(=O)(=O)c2cccc(F)c2)c1F)c1c[nH]c2nccc(Cl)c12 has a reported solubility of Soluble

CCCS(=O)(=O)Nc1ccc(F)c(C(=O)c2c[nH]c3ncc(-c4cn[nH]c4)cc23)c1F has a reported solubility of Insoluble

O=C(c1c(F)ccc(NS(=O)(=O)c2ccccc2F)c1F)c1c[nH]c2nccc(Cl)c12 has a reported solubility of Soluble

COc1ncc(-c2cnc3[nH]cc(C(=O)c4c(F)ccc(NS(=O)(=O)c5ccccc5F)c4F)c3c2)cn1 has a reported solubility of Insoluble
